tested_target: T1, extracellular domain (ECD) of human TrkA protein, N-terminal flag tag and C-terminal His tag (PHA) (human, UniProt P04629 33-423)
T1 construct: Made in 293-F cells and purified by IMAC; also called TrkA ECD protein; TrkA (ECD); not shown: flag tag at the N-terminus (after the signal peptide); His tag at the C-terminus
T1 sequence (P04629 33-423): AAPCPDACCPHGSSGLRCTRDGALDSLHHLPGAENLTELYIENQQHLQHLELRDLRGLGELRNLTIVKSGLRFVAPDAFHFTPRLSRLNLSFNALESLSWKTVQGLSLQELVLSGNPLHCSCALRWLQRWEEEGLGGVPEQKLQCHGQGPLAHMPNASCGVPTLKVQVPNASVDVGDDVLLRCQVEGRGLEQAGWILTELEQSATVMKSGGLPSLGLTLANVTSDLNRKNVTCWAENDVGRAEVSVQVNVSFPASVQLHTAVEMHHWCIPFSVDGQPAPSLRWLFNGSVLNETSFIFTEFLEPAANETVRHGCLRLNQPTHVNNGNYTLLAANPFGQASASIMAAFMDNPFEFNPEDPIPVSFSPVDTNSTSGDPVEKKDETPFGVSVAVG
protocol: BLI (Octet Red384), as in Example 4
pKd: −log10 of the molar value.

[
  {
    "binder": "chi-PHD49 (antibody, V domains shown, Chimeric: human IgG4 / human kappa constant regions (pCDNA3.4-hIgG4 and pCDNA3.4-hKappa vectors)) VH: QVQLQQSGAELARPGASVKLSCKASGYTFSSYWMQWVKQRPGQGLEWIGAIYPGDDDTIYTQKFKGKATLTADKSSSTAYMQLSSLASEDSAVYYCARNYDYQAWFAYWGQGTLVTVSA VL: QIVLTQSPALMSASPGEKVTMTCSASSSVSYMYWYQQKPRSSPKPWIYLTSNLASGVPARFSGSGSGTSYSLTISSMEAEDAATYYCQQWSSNPLTFGAGTKLELK",
    "pKd": 8.44
  },
  {
    "binder": "PHD48-01 (humanized muPHD48) (antibody, human IgG4, V domains shown) VH: QVQLVQSGAEVKKPGASVKVSCKASGYSFTTYWMHWVRQAPGQGLEWIGTIYPGNSDSSNNQKFKGRATLTADTSTSTAYMELSSLRSEDTAVYYCTRFYYEDWYFDVWGQGTMVTVSS VL: DIQMTQSPSSLSASVGDRVTITCSASSSVSYMYWFQQKPGKAPKPWIYRTSNLASGVPSRFSGSGSGTDYTLTISSLQPEDFATYYCQQYHSYPPTFGGGTKVEIK",
    "pKd": 8.51
  },
  {
    "binder": "PHD49-11 (antibody, IgG4, V domains shown) VH: QVQLVQSGAEVKKPGSSVKVSCKASGYTFSSYWMQWVRQAPGQGLEWIGAIYPGDDDTIYTQKFKGRATITADKSTSTAYMELSSLRSEDTAVYYCARNYDYQAWFAYWGQGTLVTVSS VL: DIQMTQSPSSLSASVGDRVTITCRASSSVSYLYWYQQKPGKAPKPWIYLTSNLASGVPSRFSGSGSGTDYTLTISSLQPEDFATYYCQQWSSNPLTFGQGTKLEIK",
    "pKd": 7.97
  },
  {
    "binder": "PHD48-08 (antibody, IgG4, V domains shown) VH: QVQLVQSGAEVKKPGASVKVSCKASGYTFTTYWMHWVRQAPGQGLEWIGTIYPGNSDSSNAQKFQGRVTLTADTSTSTAYMELSSLRSEDTAVYYCTRFYYEDWYFDVWGQGTTVTVSS VL: DIQMTQSPSSLSASVGDRVTITCRASSSVSYLYWFQQKPGKAPKPLIYRTSNLASGVPSRFSGSGSGTDYTLTISSLQPEDFATYYCQQYHSYPPTFGGGTKVEIK",
    "pKd": 8.86
  }
]
